Experiment: Measurement of Log P values by HPLC on reversed phase columns (EEC directive 79/831 Annex V.A8)
Type: physicochemical
Conditions: method [b]: LC-UV, neutral range, 0.001 molar ammonium acetate solution in water and acetonitrile as eluent
propertyMeasured: chromatographic logP
Give a plain numeric answer without units written out.

get_value(item= `O=C(O)c1c(Oc2cccc(C(F)(F)F)c2)nnc2c1CCCC2` , readout=chromatographic logP) returns 0.55

get_value(item= `CCOC(=O)c1c(Oc2cccc(C(F)F)c2)nnc2c1CCCC2` , readout=chromatographic logP) returns 3.19

get_value(item= `O=C(O)c1c(Oc2cccc(Cl)c2F)nnc2c1CCCC2` , readout=chromatographic logP) returns 0.42

get_value(item= `CCOC(=O)c1c(Oc2cccc(Cl)c2F)nnc2c1CCCC2` , readout=chromatographic logP) returns 3.56

get_value(item= `O=C(O)c1c(Oc2cccc(Br)c2F)nnc2c1CCCC2` , readout=chromatographic logP) returns 0.45

----------
Assay: Measurement of Log P values by HPLC on reversed phase columns (EEC directive 79/831 Annex V.A8)
Type: physicochemical
Settings: reversed phase HPLC column, method [a]: LC-UV, acidic range, 0.1% formic acid in water and acetonitrile as eluent
Description: A-1.1. Measurement of Log P Values Measurement of Log P values as provided herein was performed according to EEC directive 79/831 Annex V.A8 by HPLC (High Performance Liquid Chromatography) on reversed phase columns with the following methods: ^[a] Log P value is determined by measurement of LC-UV, in an acidic range, with 0.1% formic acid in water and acetonitrile as eluent (linear gradient from 10% acetonitrile to 95% acetonitrile). ^[b] […]
So I've got a bunch of molecules here, and I need their chromatographic logP values.
Give a plain numeric answer without units written out.

get_value(item= Cc1cccc(Oc2cnc3ccccc3c2C(=O)O)c1 [1-43] , readout=chromatographic logP) returns 2.18

get_value(item= O=C(NCC(F)(F)c1ccc(C2=CCCC2)cc1Cl)c1c(Oc2cccc(C(F)(F)F)c2)nnc2ccccc12 [I-073] , readout=chromatographic logP) returns 5.4

get_value(item= O=C(O)c1c(Oc2cccc(C3CC3)c2F)nnc2c1CCCC2 [1-30] , readout=chromatographic logP) returns 1.72

get_value(item= Cc1ccc(C(F)(F)CNC(=O)c2c(Oc3cccc(C(F)(F)F)c3)nnc3c2CCCC3)c(C)c1 [I-115] , readout=chromatographic logP) returns 4.05

get_value(item= Cc1cc(Cl)ccc1C(F)(F)CNC(=O)c1c(Oc2cccc(C(F)(F)F)c2)nnc2c1CCCC2 [I-145] , readout=chromatographic logP) returns 4.28

get_value(item= O=C(NCC(F)(F)c1ccc(Cl)cc1)c1c(Oc2cccc(C(F)(F)F)c2)nnc2ccccc12 [I-023] , readout=chromatographic logP) returns 4.13

get_value(item= Cc1ccc(C(F)(F)CNC(=O)c2c(Oc3cccc(C(F)(F)F)c3)nnc3c2CC(O)CC3)c(C)c1 (centres unmarked) [I-117] , readout=chromatographic logP) returns 3.18

get_value(item= O=C(O)c1c(Oc2cccc(C3CC3)c2)nnc2ccccc12 [1-36] , readout=chromatographic logP) returns 2.36

get_value(item= Cc1cc(Cl)ccc1C(F)(F)CNC(=O)c1c(Oc2cccc(C(F)(F)F)c2)nnc2c1CCC2 [I-164] , readout=chromatographic logP) returns 4.11

get_value(item= Cc1cc(Br)ccc1C(F)(F)CNC(=O)c1c(Oc2cccc(C(F)(F)F)c2)nnc2c1CCCC2 [I-202] , readout=chromatographic logP) returns 4.28

get_value(item= Cc1ccc2c(C(=O)NCC(F)(F)c3ccc(C)c(C)c3)c(Oc3cccc(C(F)(F)F)c3)nnc2c1 [I-246] , readout=chromatographic logP) returns 4.66

get_value(item= Cc1ccc(C(F)CNC(=O)c2c(Oc3cccc(C4CC4)c3F)nnc3c2CCCC3)c(C)c1 (centres unmarked) [I-137] , readout=chromatographic logP) returns 4

get_value(item= Cc1ccc(C(F)CNC(=O)c2c(Oc3cccc(Cl)c3F)nnc3c2CCCC3)c(C)c1 (centres unmarked) [I-136] , readout=chromatographic logP) returns 3.78

get_value(item= Cc1ccc(C(F)(F)CNC(=O)c2c(Oc3cccc(C(F)(F)F)c3)cnc3ccoc23)c(C)c1 [I-066] , readout=chromatographic logP) returns 4.14

get_value(item= Cc1ccc(C(F)(F)CNC(=O)c2c(Oc3cncc(C(F)(F)F)c3)nnc3ccccc23)c(C)c1 [I-025] , readout=chromatographic logP) returns 3.87

get_value(item= Cc1ccc2c(C(=O)NC[C@H](F)c3ccc(Br)cc3Cl)c(Oc3cccc(C(F)(F)F)c3)nnc2c1 (racemic) [I-046] , readout=chromatographic logP) returns 4.57

get_value(item= O=C(O)c1c(Oc2cccc(C(F)(F)F)c2)nnc2c1OCCO2 [1-17] , readout=chromatographic logP) returns 1.31

----------
Assay: Measurement of Log P values by HPLC on reversed phase columns (EEC directive 79/831 Annex V.A8)
Type: physicochemical
Details: reversed phase HPLC column, method [b]: LC-UV, neutral range, 0.001 molar ammonium acetate solution in water and acetonitrile as eluent
Experimental: A-1.1. Measurement of Log P Values Measurement of Log P values as provided herein was performed according to EEC directive 79/831 Annex V.A8 by HPLC (High Performance Liquid Chromatography) on reversed phase columns with the following methods: ^[a] Log P value is determined by measurement of LC-UV, in an acidic range, with 0.1% formic acid in water and acetonitrile as eluent (linear gradient from 10% acetonitrile to 95% acetonitrile). ^[b] […]
Output True for chromatographic logP not less than 4; output False otherwise.

Task: Reported chromatographic logP reaches at least 4 for `Cc1ccc(C(F)(F)CNC(=O)c2c(Oc3cccc(C(F)(F)F)c3)nnc3ccccc23)c(C)c1` ?
Output: True

Task: Reported chromatographic logP reaches at least 4 for `O=C(O)c1c(Oc2cccc(C3CC3)c2F)nnc2c1CCCC2` ?
Output: False

Task: Reported chromatographic logP reaches at least 4 for Cc1ccc2c(c1)CCC[C@@H]2NC(=O)c1c(Oc2cccc(C(F)(F)F)c2)cnc2c1OCCO2 (racemic) ?
Output: False

Task: Reported chromatographic logP reaches at least 4 for `N#Cc1cccc(Oc2nnc3ccccc3c2C(=O)NCC(F)(F)c2ccc(Cl)cn2)c1` ?
Output: False

----------
So I've got a bunch of compounds here, and I need their inhibition at 20 ppm values.
Tested on: Alternaria alternata
Experiment: Alternaria alternata in vitro cell test
Format: cell-based
Details: 120 h, 20 ppm of active ingredient, liquid culture, 5 days incubation, spectrometric measurement of mycelium growth, read-out: efficacy (inhibition of fungal growth)

get_value(item= `Cc1ccc(C(F)(F)CNC(=O)c2c(Oc3cccc(C(F)(F)F)c3)nnc3cc(C4CC4)ccc23)c(C)c1` , readout=inhibition at 20 ppm) returns 90 to 100%

get_value(item= `Cc1ccc(C(F)(F)CNC(=O)c2c(Oc3cccc(Br)c3F)nnc3c2CCCC3)c(C)c1` , readout=inhibition at 20 ppm) returns 90 to 100%

get_value(item= Cc1ccc([C@@H](F)CNC(=O)c2c(Oc3cccc(Cl)c3)nnc3ccccc23)cc1C (racemic) , readout=inhibition at 20 ppm) returns 90 to 100%

get_value(item= `Cc1ccc(C(F)(F)CNC(=O)c2c(Oc3cccc(C(F)(F)F)c3)cnc3c2OCCO3)c(C)c1` , readout=inhibition at 20 ppm) returns 90 to 100%

----------
Test: Measurement of Log P values by HPLC on reversed phase columns (EEC directive 79/831 Annex V.A8)
Assay type: physicochemical
Settings: reversed phase HPLC column, method [a]: LC-UV, acidic range, 0.1% formic acid in water and acetonitrile as eluent
So I've got a bunch of compounds here, and I need their chromatographic logP values.
Give a plain numeric answer without units written out.

get_value(item= `Cc1ccc(C(F)(F)CNC(=O)c2c(Oc3cccc(C4CC4)c3F)nnc3c2CCC3)c(C)c1` , readout=chromatographic logP) returns 4.17

get_value(item= `O=C(NCC(F)(F)c1ccc(Br)cc1Cl)c1c(Oc2cccc(Cl)c2)nnc2ccccc12` , readout=chromatographic logP) returns 4.46

get_value(item= `Cc1ccc(C(F)(F)CNC(=O)c2c(Oc3cccc(Br)c3F)nnc3ccccc23)c(C)c1` , readout=chromatographic logP) returns 4.4

get_value(item= `O=C(NCC(F)(F)c1ccc(Cl)cn1)c1c(Oc2cccc(C(F)F)c2)nnc2ccccc12` , readout=chromatographic logP) returns 3.2

get_value(item= `O=C(O)c1c(Oc2cccc(Cl)c2)nnc2c1CCCC2` , readout=chromatographic logP) returns 1.28

get_value(item= `Cc1cccc(Oc2nnc3ccccc3c2C(=O)NCC(F)(F)c2ccc(Br)cc2Cl)c1` , readout=chromatographic logP) returns 4.37

get_value(item= `O=C(O)c1c(Oc2cccc(Br)c2)nnc2ccccc12` , readout=chromatographic logP) returns 2.2

get_value(item= `Cc1ccc(C(F)(F)CNC(=O)c2c(Oc3cccc(C(F)(F)F)c3)c(C)nc3ccccc23)c(C)c1` , readout=chromatographic logP) returns 4.59

get_value(item= `CCOC(=O)c1c(Oc2cccc(C3CC3)c2F)nnc2c1CCCC2` , readout=chromatographic logP) returns 3.79

get_value(item= O=C(NC[C@H](F)c1ccc(C2CC2)cc1Cl)c1c(Oc2cccc(Cl)c2)nnc2ccccc12 (racemic) , readout=chromatographic logP) returns 4.47

get_value(item= O=C(N[C@H]1CCCc2cc(Cl)sc21)c1c(Oc2cccc(C(F)(F)F)c2)cnc2ccccc12 (racemic) , readout=chromatographic logP) returns 4.54

get_value(item= `Cc1ccc(C(F)(F)CNC(=S)c2c(Oc3cccc(C(F)(F)F)c3)cnc3ccccc23)c(C)c1` , readout=chromatographic logP) returns 5.17

get_value(item= `O=C(O)c1c(Oc2ccc(Cl)cc2)nnc2ccccc12` , readout=chromatographic logP) returns 2.12

get_value(item= `O=C(O)c1c(Oc2cncc(C(F)(F)F)c2)nnc2ccccc12` , readout=chromatographic logP) returns 1.83

get_value(item= `CC1(C)CCc2c1nnc(Oc1cccc(C(F)(F)F)c1)c2C(=O)O` , readout=chromatographic logP) returns 2.49

get_value(item= O=C(NC[C@H](F)c1ccc(Br)cc1Cl)c1c(Oc2cccc(C(F)(F)F)c2)cnc2ccccc12 (racemic) , readout=chromatographic logP) returns 4.56

get_value(item= O=C(NC[C@H](F)c1ccc(Br)cc1Cl)c1c(Oc2cccc(C(F)(F)F)c2)nnc2c1OCCO2 (racemic) , readout=chromatographic logP) returns 3.48

get_value(item= Cc1ccc2c(c1)CCC[C@@H]2NC(=O)c1c(Oc2cccc(C(F)(F)F)c2)cnc2c1OCCO2 (racemic) , readout=chromatographic logP) returns 3.8

get_value(item= `O=C(NCC(F)(F)c1ccc(Br)cc1Cl)c1c(Oc2cccc(C3CC3)c2F)nnc2c1CCCC2` , readout=chromatographic logP) returns 4.69

get_value(item= O=C(NCC(F)c1ccc(Cl)cc1Cl)c1c(Oc2cccc(Cl)c2F)nnc2c1CCC2 (stereo not drawn) , readout=chromatographic logP) returns 3.89

get_value(item= `O=C(N[C@H]1CCCc2ccc(Cl)cc21)c1c(Oc2cccc(C(F)(F)F)c2)nnc2ccccc12` , readout=chromatographic logP) returns 4.44

get_value(item= `Cc1ccc(C(F)(F)CNC(=O)c2c(Oc3cccc(Cl)c3F)nnc3c2CCC3)c(Cl)c1` , readout=chromatographic logP) returns 3.84

get_value(item= `CCON(Cc1ccccc1)C(=O)c1c(Oc2cccc(C(F)(F)F)c2)nnc2ccccc12` , readout=chromatographic logP) returns 4.24

get_value(item= `Cc1ccc(C(F)(F)CNC(=O)c2c(Oc3cccc(C4CC4)c3)nnc3ccccc23)c(C)c1` , readout=chromatographic logP) returns 4.45

get_value(item= O=C(NCC(F)c1ccc(Cl)cc1Cl)c1c(Oc2cccc(C3CC3)c2)nnc2c1CCCC2 (stereo not drawn) , readout=chromatographic logP) returns 4.11

get_value(item= `COc1ccc2nnc(Oc3cccc(C(F)(F)F)c3)c(C(=O)NCCc3ccc(C)cc3C)c2c1` , readout=chromatographic logP) returns 4.29

get_value(item= `O=C(NCCc1ccc2c(c1)CCO2)c1c(Oc2cccc(C(F)(F)F)c2)nnc2ccccc12` , readout=chromatographic logP) returns 3.53

get_value(item= `O=C(N[C@H]1CCOc2cc(F)ccc21)c1c(Oc2cccc(C(F)(F)F)c2)nnc2ccccc12` , readout=chromatographic logP) returns 3.69

get_value(item= Cc1ccc(C(F)CNC(=O)c2c(Oc3cccc(C(F)(F)F)c3)nnc3c2COCC3)c(C)c1 (stereo not drawn) , readout=chromatographic logP) returns 3.61

get_value(item= Cc1ccc([C@@H](F)CNC(=O)c2c(Oc3cccc(Cl)c3)nnc3ccccc23)c(Cl)c1 (racemic) , readout=chromatographic logP) returns 4.19

get_value(item= O=C(NC[C@H](F)c1ccc(Cl)cc1Cl)c1c(Oc2cccc(C(F)(F)F)c2)cnc2ccccc12 (racemic) , readout=chromatographic logP) returns 4.46

get_value(item= `Cc1ccc(C(F)(F)CNC(=O)c2c(Oc3cccc(C#N)c3)nnc3ccccc23)c(C)c1` , readout=chromatographic logP) returns 3.58

get_value(item= O=C(NC[C@H](F)c1ccc(C2CC2)cc1Cl)c1c(Oc2cccc(C(F)(F)F)c2)cnc2ccccc12 (racemic) , readout=chromatographic logP) returns 4.7
